meta.source: PubChem BioAssay (Tox21)

# method_description: cAMP Responsive Elements (CRE) small molecule antagonists, cell-based qHTS assay: qHTS cell viability counter screen (AID 2060913); also: nearly all actives have a fitted effect of over 40% in size
# setup_conditions: CRE-bla HEK293T viability, CellTiter-Glo luminescence, 5 h; series mostly up to 92.4 µM
Records with an inconclusive call do not appear. Calls of active or inactive are those of the source. Calls follow the shape of the dose curve; as a rule, active = well fitted cell-killing curve with a large enough effect in the repeat runs; inconclusive = weak or mixed curves, or effect the other way; inactive = flat fitted curve, though single readings scatter.
experimental_endpoint: outcome

| compound | test_result |
| --- | --- |
| CC(C)C(Nc1ccc(C(F)(F)F)cc1Cl)C(=O)OC(C#N)c1cccc(Oc2ccccc2)c1 (configuration not stated) | inactive |
| Oc1cc(Cl)c(Cl)cc1Cl | inactive |
| CCC(C)(c1ccc(O)cc1)c1ccc(O)cc1 | inactive |
| Nc1cc(Cl)cc(C(=O)O)c1Cl | inactive |
| CC(C)=CC1C(C(=O)OC(C#N)c2cccc(Oc3ccccc3)c2)C1(C)C (configuration not stated) | inactive |

Which outcome reading was recorded for the compound CCOC(=O)[C@]1(c2ccccc2)Oc2ccccc2[C@@H]1N ?
inactive

Which outcome reading was recorded for the compound CCC(C)(C)c1ccc(O)cc1 ?
inactive

Which outcome reading was recorded for the compound CCS(=O)(=O)CCSP(=O)(OC)OC ?
inactive

Which outcome reading was recorded for the compound C=C(C)C(=O)OCC(CC)CCCC (configuration not stated) ?
inactive

Which outcome reading was recorded for the compound CCCCCCCCCCCOC(=O)c1ccccc1C(=O)OCCCCCCCCCCC ?
inactive

Which outcome reading was recorded for the compound O=P(OCC(Br)CBr)(OCC(Br)CBr)OCC(Br)CBr (configuration not stated) ?
inactive

Which outcome reading was recorded for the compound COC(=O)N(C(=O)N1COC2(C(=O)OC)Cc3cc(Cl)ccc3C2=N1)c1ccc(OC(F)(F)F)cc1 (configuration not stated) ?
inactive

----------
# method_description: cAMP Responsive Elements (CRE) small molecule agonists, cell-based qHTS assay: qHTS cell viability counter screen (AID 2060914);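 also: viability read after 3 h of compound exposure; nearly all actives have a fitted effect of over 50% in size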
# setup_conditions: CRE-bla HEK293T viability, CellTiter-Glo luminescence, 5 h; series mostly up to 92.4 µM
Results filed as inconclusive are left out. The source made the active and inactive calls. Calls follow the shape of the dose curve; as a rule, active = well fitted cell-killing curve with a large enough effect in the repeat runs; inconclusive = weak or mixed curves, or effect the other way; inactive = flat fitted curve, though single readings scatter.
Your reply should match one of these outcome classes. YES for active, NO for inactive

# example entries with known answers
| molecule | assigned_category |
| --- | --- |
| Cc1c(Cl)c(=O)oc2cc(OP(=O)(OCCCl)OCCCl)ccc12 | NO |
| O=C1OC(CCN2CCCCC2)OC1(c1ccccc1)c1ccccc1 (stereo not given) | NO |
| N#Cc1cccc(C#N)c1 | NO |
| CCC(C)Br (stereo not given) | NO |
| O=C(O)C(Br)Br | NO |
| COc1cc(C=O)cc2c1[C@H](COC(N)=O)[C@]1(OC(C)=O)ON2C[C@H]2[C@@H]1N2C(C)=O | NO |
| COCC(=O)N(c1c(C)cccc1C)C(C)C(=O)OC (stereo not given) | NO |
| CCn1cc[n+](C)c1 | NO |

From here, focus on the item given below.
Returns: the outcome recorded for COc1cc(CC(C)N)cc(OC)c1OC (stereo not given) in this assay.
NO

----------
# method_description: cAMP Responsive Elements (CRE) small molecule agonists, cell-based qHTS assay: qHTS cell viability counter screen (AID 2060914);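 also: viability read after 3 h of compound exposure; nearly all actives have a fitted effect of over 50% in size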
# setup_conditions: CRE-bla HEK293T viability, CellTiter-Glo luminescence, 5 h; series mostly up to 92.4 µM
Inconclusive results are not listed. Active and inactive are the calls of the source. Calls follow the shape of the dose curve; as a rule, active = well fitted cell-killing curve with a large enough effect in the repeat runs; inconclusive = weak or mixed curves, or effect the other way; inactive = flat fitted curve, though single readings scatter.
Your reply should match one of these outcome classes. active, inactive

| molecule | assigned_category |
| --- | --- |
| O=C(NC(=O)c1c(F)cccc1F)Nc1ccc(Oc2ccc(C(F)(F)F)cc2Cl)cc1F | inactive |
| CC#C[C@]1(O)CC[C@H]2[C@@H]3C[C@H](C)C4=CC(=O)CC[C@]4(C)[C@H]3CC[C@@]21C | inactive |
| ClCc1cccnc1 | inactive |

Returns: the outcome recorded for C[C@@H]1CC[C@@]2(OC1)O[C@H]1[C@@H](O)[C@H]3[C@@H]4CC[C@H]5C[C@@H](O[C@@H]6O[C@H](CO)[C@H](O[C@@H]7O[C@H](CO)[C@@H](O)[C@H](O[C@@H]8OC[C@@H](O)[C@H](O)[C@H]8O)[C@H]7O[C@@H]7O[C@H](CO)[C@@H](O)[C@H](O[C@@H]8O[C@H](CO)[C@@H](O)[C@H](O)[C@H]8O)[C@H]7O)[C@H](O)[C@H]6O)[C@H](O)C[C@]5(C)[C@H]4CC[C@]3(C)[C@H]1[C@@H]2C in this assay.
active

Returns: the outcome recorded for c1cc[c]([Hg][c]2ccccc2)cc1 in this assay.
inactive

Returns: the outcome recorded for CCN(Cc1ccc(Cl)nc1)/C(=C/[N+](=O)[O-])NC in this assay.
inactive

Returns: the outcome recorded for CC(C(O)c1ccccc1)N(C)C/C=C/c1ccccc1 (stereo not drawn) in this assay.
inactive

Returns: the outcome recorded for CC(C)(C)OOC(=O)c1ccccc1 in this assay.
inactive
